Origin of measurements: ChEMBL document CHEMBL1148453

Test system: Plasmodium falciparum
assay: microbe, parasite or virus in culture
Description: In vitro antiparasitic activity against chloroquine-resistant Plasmodium falciparum Indochina I
pIC50: −log10 of the molar value.
valueKind: pIC50

# annotated cases, reported pIC50 shown
mol=N=C(N)c1ccc(N2CCCN(c3ccc(C(=N)N)cc3)CC2)cc1 observedvalue=7.00
mol=c1ccc(N2CCN(c3ccccc3)C2c2ccc(N3CCN(c4ccc(C5N(c6ccccc6)CCN5c5ccccc5)cc4)CC3)cc2)cc1 observedvalue="< 6.30"
mol=NNC(=O)c1ccc(N2CCN(c3ccc(C(=O)NN)cc3)CC2)cc1 observedvalue="< 6.30"
mol=N=C(N)c1ccc(OCCCCCOc2ccc(C(=N)N)cc2)cc1 observedvalue=7.35
mol=CCOC(=O)c1ccc(N2CCN(c3ccc(C(=O)OCC)cc3)CC2)cc1 observedvalue="< 6.30"
mol=c1cc(N2CCN(c3ccc(C4OCCO4)cc3)CC2)ccc1C1OCCO1 observedvalue="< 6.30"

Next up:
Write down pIC50 measured for item "CN1CCN(C)C1c1ccc(N2CCN(c3ccc(C4N(C)CCN4C)cc3)CC2)cc1"
< 6.30

###

ΔTm values for the compounds below.
System: Nucleic Acid
assay: Binding affinity for poly dA-dT DNA by measuring the change in midpoint of the thermal denaturation curves
Type: nucleic-acid assay
# output: bare number, implied unit °C

# annotated cases, reported ΔTm shown
compound="N=C(N)c1ccc(OCCCCCOc2ccc(C(=N)N)cc2)cc1 [PENTAMIDINE]" valueunits=°C observedvalue=20.6
compound=N=C(N)c1ccc(N2CCCN(c3ccc(C(=N)N)cc3)CC2)cc1 valueunits=°C observedvalue=23.1
compound=NNC(=O)c1ccc(N2CCN(c3ccc(C(=O)NN)cc3)CC2)cc1 valueunits=°C observedvalue=0
compound=c1cc(N2CCN(c3ccc(C4OCCO4)cc3)CC2)ccc1C1OCCO1 valueunits=°C observedvalue=0.1
compound=CCOC(=O)c1ccc(N2CCN(c3ccc(C(=O)OCC)cc3)CC2)cc1 valueunits=°C observedvalue=0

Write down ΔTm measured for item "c1ccc(N2CCN(c3ccccc3)C2c2ccc(N3CCN(c4ccc(C5N(c6ccccc6)CCN5c5ccccc5)cc4)CC3)cc2)cc1"
0

Write down ΔTm measured for item "CN1CCN(C)C1c1ccc(N2CCN(c3ccc(C4N(C)CCN4C)cc3)CC2)cc1"
1.8

###

Test system: Calf thymus DNA
assay: Binding affinity for calf thymus DNA by measuring the change in midpoint of the thermal denaturation curves
Type: nucleic-acid assay
conditionParameters: Bos taurus
ΔTm values for the compounds below.
# output: bare number, implied unit °C

mol=CN1CCN(C)C1c1ccc(N2CCN(c3ccc(C4N(C)CCN4C)cc3)CC2)cc1 valueunits=°C observedvalue=2.4

Write down ΔTm measured for item "NNC(=O)c1ccc(N2CCN(c3ccc(C(=O)NN)cc3)CC2)cc1"
0.1

Write down ΔTm measured for item "c1cc(N2CCN(c3ccc(C4OCCO4)cc3)CC2)ccc1C1OCCO1"
-1.2

Write down ΔTm measured for item "N=C(N)c1ccc(N2CCCN(c3ccc(C(=N)N)cc3)CC2)cc1"
15

Write down ΔTm measured for item "CCOC(=O)c1ccc(N2CCN(c3ccc(C(=O)OCC)cc3)CC2)cc1"
0.6

Write down ΔTm measured for item "N=C(N)c1ccc(OCCCCCOc2ccc(C(=N)N)cc2)cc1"
11.1

Write down ΔTm measured for item "c1ccc(N2CCN(c3ccccc3)C2c2ccc(N3CCN(c4ccc(C5N(c6ccccc6)CCN5c5ccccc5)cc4)CC3)cc2)cc1"
-1.2
